Where these numbers come from: patent US9840513B2

- assayed.system: F508delCFTR cell surface expression in CFBE41o-F508delCFTR-HRP cells (Homo sapiens, UniProt P13569, DEL508-508)
- Construct: fused on or other part: Horseradish peroxidase (HRP) reporter inserted in the fourth exofacial (extracellular) loop of CFTR; expression is doxycycline-inducible
- Sequence (P13569 with tags, fused parts or gaps DEL508-508 limits assumed): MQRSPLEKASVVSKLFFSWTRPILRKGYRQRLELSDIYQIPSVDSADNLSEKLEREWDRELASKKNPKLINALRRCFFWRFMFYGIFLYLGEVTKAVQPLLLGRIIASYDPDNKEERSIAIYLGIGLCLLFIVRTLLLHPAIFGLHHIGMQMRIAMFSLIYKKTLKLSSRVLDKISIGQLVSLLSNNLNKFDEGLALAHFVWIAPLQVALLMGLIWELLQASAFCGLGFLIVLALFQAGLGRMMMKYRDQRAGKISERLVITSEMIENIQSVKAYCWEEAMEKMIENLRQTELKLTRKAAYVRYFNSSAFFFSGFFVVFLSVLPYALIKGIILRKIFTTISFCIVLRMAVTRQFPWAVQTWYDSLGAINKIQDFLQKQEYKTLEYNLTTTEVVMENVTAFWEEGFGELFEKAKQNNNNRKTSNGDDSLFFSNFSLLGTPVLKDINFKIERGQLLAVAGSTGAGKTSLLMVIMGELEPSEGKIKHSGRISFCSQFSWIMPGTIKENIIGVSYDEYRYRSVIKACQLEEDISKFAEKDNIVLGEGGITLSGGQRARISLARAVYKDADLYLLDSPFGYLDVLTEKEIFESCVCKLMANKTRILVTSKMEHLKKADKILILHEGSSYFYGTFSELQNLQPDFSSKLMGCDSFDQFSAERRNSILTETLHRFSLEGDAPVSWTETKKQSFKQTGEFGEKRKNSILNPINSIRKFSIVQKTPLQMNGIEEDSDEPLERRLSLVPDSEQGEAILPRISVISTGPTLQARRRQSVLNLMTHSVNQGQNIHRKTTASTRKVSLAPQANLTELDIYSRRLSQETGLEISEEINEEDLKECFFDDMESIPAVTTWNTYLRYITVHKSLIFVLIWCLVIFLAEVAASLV
- Sequence (P13569 919-1480 limits assumed, stated change not applied): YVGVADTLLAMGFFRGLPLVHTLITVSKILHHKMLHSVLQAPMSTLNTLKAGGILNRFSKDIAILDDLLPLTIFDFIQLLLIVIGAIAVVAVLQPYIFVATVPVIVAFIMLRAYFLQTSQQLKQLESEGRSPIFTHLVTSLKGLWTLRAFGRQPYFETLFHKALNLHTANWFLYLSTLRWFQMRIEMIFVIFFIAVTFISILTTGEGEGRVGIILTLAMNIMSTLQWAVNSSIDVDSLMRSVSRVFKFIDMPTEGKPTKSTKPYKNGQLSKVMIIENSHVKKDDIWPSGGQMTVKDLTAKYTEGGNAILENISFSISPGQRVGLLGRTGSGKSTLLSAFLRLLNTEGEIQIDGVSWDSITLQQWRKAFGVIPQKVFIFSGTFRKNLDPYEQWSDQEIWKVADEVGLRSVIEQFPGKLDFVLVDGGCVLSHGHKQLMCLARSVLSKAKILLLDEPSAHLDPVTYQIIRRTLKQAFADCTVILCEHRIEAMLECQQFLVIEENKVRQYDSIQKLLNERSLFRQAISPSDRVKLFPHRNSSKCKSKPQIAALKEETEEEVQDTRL
- method.notes: Cell Surface Expression-Horse Radish Peroxidase (CSE-HRP) Assay
- condition.details: CFBE41o-F508delCFTR-HRP cells, 18-24 hours at 33° C., 8-point curve, highest concentration 20 μM
This listing pairs molecules with measured EC50.
Report only the number, with the unit nM understood.

The cases that follow already have their EC50 on record.
>  <molecule>
CC(C)(C)OC(=O)N[C@H]1CC[C@H]([C@H]2C[C@@H](NC(=O)[C@@]3(C)COc4cc5c(cc43)OC(F)(F)O5)c3ccc(OC(F)F)cc3O2)CC1

>  <obs.value>
210

$$$$
>  <molecule>
COc1ccc2c(c1)O[C@@H](c1cccc(C(=O)O)c1)C[C@H]2NC(=O)[C@]1(C)COc2cc3c(cc21)OC(F)(F)O3

>  <obs.value>
8810

$$$$
>  <molecule>
COc1ccc2c(c1)O[C@@H](c1ccc(C(=O)NCC(C)O)cn1)C[C@H]2NC(=O)[C@@]1(C)COc2cc3c(cc21)OC(F)(F)O3 (stereo partly shown)

>  <obs.value>
40

$$$$
>  <molecule>
COc1ccc2c(c1)O[C@@H](c1ccc(C(=O)O)cc1)C[C@H]2NC(=O)[C@]1(C)CCc2cc3c(cc21)OC(F)(F)O3 (single isomer, unassigned)

>  <obs.value>
210

$$$$
>  <molecule>
COc1ccc2c(c1)O[C@@H](c1cnc(N3C[C@@H](O)[C@H](O)C3)cn1)C[C@H]2NC(=O)[C@@]1(C)COc2cc3c(cc21)OC(F)(F)O3

>  <obs.value>
20

$$$$
>  <molecule>
CCOC(=O)c1csc(-c2cccc(NC(=O)[C@@]3(C)COc4cc5c(cc43)OC(F)(F)O5)n2)c1

>  <obs.value>
3160

$$$$

Specify EC50 for `C[C@]1(C(=O)Nc2cccc(-c3ccc(C(=O)O)cc3)n2)COc2cc3c(cc21)OC(F)(F)O3` and stop.
1400

====

This listing pairs compounds with measured log10 of EC50.
- assayed.system: F508delCFTR cell surface expression in CFBE41o-F508delCFTR-HRP cells (Homo sapiens, UniProt P13569, DEL508-508)
- Construct: fused on or other part: Horseradish peroxidase (HRP) reporter inserted in the fourth exofacial (extracellular) loop of CFTR; expression is doxycycline-inducible
- method.notes: Cell Surface Expression-Horse Radish Peroxidase (CSE-HRP) Assay
- condition.details: CFBE41o-F508delCFTR-HRP cells, 18-24 hours at 33° C., 8-point curve, highest concentration 20 μM
Transform log10 | Measure EC50 | Unit nM

>  <compound>
Cc1ccc(NC(=O)[C@@]2(C)COc3cc4c(cc32)OC(F)(F)O4)nc1-c1cccc(C(=O)O)c1 [Example 6]

>  <log10 of EC50>
2.46

$$$$
>  <compound>
COc1ccc2c(c1)O[C@@H](CO)C[C@H]2NC(=O)[C@@]1(C)COc2cc3c(cc21)OC(F)(F)O3 [Example 277]

>  <log10 of EC50>
2.82

$$$$
>  <compound>
COc1ccc2c(c1)O[C@@H](c1ccc(C(=O)NC(C)CO)cn1)C[C@H]2NC(=O)[C@@]1(C)COc2cc3c(cc21)OC(F)(F)O3 (stereo partly shown) [Example 242]

>  <log10 of EC50>
1.60

$$$$
>  <compound>
C[C@]1(C(=O)Nc2cccc(-c3cccc(C(=O)O)c3)n2)COc2cc3c(cc21)OC(F)(F)O3 [Example 73]

>  <log10 of EC50>
3.42

$$$$
>  <compound>
CCCN(CCO)C(=O)[C@H]1CC[C@H]([C@H]2C[C@@H](NC(=O)[C@@]3(C)COc4cc5c(cc43)OC(F)(F)O5)c3ccc(OC(F)(F)F)cc3O2)CC1 [Example 263]

>  <log10 of EC50>
1.85

$$$$

Specify log10 of EC50 for C[C@]1(C(=O)Nc2ccc(N3CCCC3)cn2)COc2cc3c(cc21)OC(F)(F)O3 [Example 80] and stop.
3.68

Specify log10 of EC50 for COC(=O)[C@H]1CN(c2cccc(NC(=O)[C@@]3(C)COc4cc5c(cc43)OC(F)(F)O5)n2)C[C@@H]1c1ccccc1 [Example 112] and stop.
3.00

Specify log10 of EC50 for COC(=O)c1cccc(-n2nc(C3CC3)cc(NC(=O)C3(C)COc4cc5c(cc43)OC(F)(F)O5)c2=O)c1 (stereo not shown) [Example 40] and stop.
2.32
